- test: Volatility of perfuming compounds in air
- Format: physicochemical
- condition-parameters: Table 5, perfuming compounds having a green note
value-kind: log10(Volatility) (log10 of the value in μg/l air)
All values: log10 Volatility [μg/l air].

Check out these entries, answers already filled in.
> print(dat)
                                   molecule  experimental.value
1                          Cc1ccc(OCC=O)cc1                1.95
2             CC(C)[C@@H]1CC[C@@H](C)CC1=NO                1.35
3                     CCCCCCCCC=O [nonanal]                3.44
4  CC(CO)c1ccccc1 (racemic) [(+−)-2-phenyl-1-propanol]                2.15
5               CCCCSCCCC [DIBUTYL SULFIDE]                3.44
6  CCCOC(C)OCCc1ccccc1 (centres unmarked) [1-PHENYL-2-(1-PROPOXYETHOXY)ETHANE]                1.78
7                  C=C(C)[C@@H]1CC=C(CO)CC1                1.53
8  COC(OC)C(C)c1ccccc1 (centres unmarked) [1,1-DIMETHOXY-2-PHENYLPROPANE]                2.58

-- ask Find the recorded log10(Volatility) belonging to CC(C)=CC1CC(C)CCO1 (centres unmarked) and report it.
-- reply 3.40

-- ask Next up: CC/C=C\CCOC(C)=O [(Z)-3-HEXENYL ACETATE]
-- reply 3.53

-- ask Next up: CCCC(S)CCOC (racemic) [(+−)-1-METHOXY-3-HEXANETHIOL]
-- reply 3.40

-- ask Next up: CC(CC=O)c1ccccc1 (racemic) [(+−)-3-PHENYLBUTANAL]
-- reply 2.36

-- ask Next up: CC1=CC2CC(C=O)C1CC2C(C)C (centres unmarked)
-- reply 2.12

-- ask Next up: CC1CC(C)(C)OC(Cc2ccccc2)O1 (centres unmarked)
-- reply 1.48
